test: adjuvant arthritis screen (Walz et al.), swelling of the non-injected left hind foot on Day 16; format: in vivo, male inbred Lewis rats; details: Rattus norvegicus, 384 h, 10 mg./kg. po, daily day -1 through day 15, read-out: Activity Percent Inhibition
measureName: inhibition in vivo at 10 mg/kg (%)
Your answer is read as %, so omit the unit and give the number.

{"molecule": "CN1CCN(CCCn2c(NC(=O)c3cccc(C(F)(F)F)c3)nc3cc(C(F)(F)F)ccc32)CC1 [3-Trifluoromethylphenyl; CF3; H; drawing 24]", "measureName": "inhibition in vivo at 10 mg/kg", "outputUnit": "%", "assayResult": 46}
{"molecule": "CN1CCN(CCCn2c(NC(=O)c3ccc(Cl)c(Cl)c3)nc3cccnc32)CC1 [3,4-Dichlorophenyl; H; H; drawing 25]", "measureName": "inhibition in vivo at 10 mg/kg", "outputUnit": "%", "assayResult": 27}
{"molecule": "CN1CCN(CCCn2c(NC(=O)c3ccc(C(F)(F)F)cc3)nc3cc(C(F)(F)F)ccc32)CC1 [4-Trifluoromethylphenyl; CF3; H; drawing 24]", "measureName": "inhibition in vivo at 10 mg/kg", "outputUnit": "%", "assayResult": 28}
{"molecule": "CN1CCN(CCCn2c(NC(=O)c3cccc(C(F)(F)F)c3)nc3ccccc32)CC1 [3-Trifluoromethylphenyl; H; H; drawing 24]", "measureName": "inhibition in vivo at 10 mg/kg", "outputUnit": "%", "assayResult": 18}

Give inhibition in vivo at 10 mg/kg for the following molecule: COc1ccc2c(c1)nc(NC(=O)C=Cc1ccc(Cl)cc1)n2CCCN1CCN(C)CC1 [4-Chlorostyryl; OCH3; H; drawing 24] 47
